Tested on: Plasmodium falciparum Sir2 (PF13_0152, Sir2A)
Test: Plasmodium falciparum Sir2A binding compounds – biochemical, small-molecule microarray, 635 nm fluorescence, primary screen (AID 1098);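 also: score merges spot fluorescence intensity with its signal-to-noise ratio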
Conditions: fluorescence 635 nm, higher = more signal
Rule: 1 for composite z-score not less than 0.5, -1 for anything less.

Example cases with answers are listed next.
NC(=O)NCC#Cc1ccc2c(c1)[C@]1(C(=O)N2)[C@H](c2ccc(O)cc2)N2[C@H](c3ccccc3)[C@H](c3ccccc3)OC(=O)[C@H]2[C@@H]1C(=O)N1CCN(c2ncccn2)CC1 ... 1
CN(C)CCCCCCNC(=O)[C@@H]1C[C@@H]2C(=O)N[C@@H](Cc3ccccc3)C(=O)N2[C@@H]1c1cccc(OCCO)c1 ... 1
C=C[C@H](C)[C@H](OC(=O)Nc1ccc(OC)cc1)c1ccc(O)c2ccccc12 ... -1
CCCNC(=O)[C@@]1(C)c2ccccc2C(=O)N(Cc2cc(F)cc(C(F)(F)F)c2)[C@H]1c1ccc(CO)cc1 ... 1
CN1C(=O)C2C=CC(C(O)C(c3ccccc3)c3ccccc3)N(Nc3ccccc3)C2C1=O (stereo not drawn) ... 1
C/C=C/[C@H](CCn1cc([C@H](O)c2ccccc2)nn1)[Si](C)(C)c1ccc(OC)cc1 ... -1
O=C(NCC(O)CO)[C@]1(CCS(=O)(=O)c2ccccc2)N=C(c2ccc(OCCCO)cc2)O[C@@H]1c1ccccc1 (stereo partly drawn) ... 1
O=C1O[C@@H](c2ccccc2)[C@@H](c2ccccc2)N2[C@@H](c3ccc(O)cc3)[C@]3(C(=O)Nc4ccccc43)[C@@H](C(=O)NC[C@H](O)c3ccccc3)[C@H]12 ... 1

Task: // inclusive: composite z-score at least 0.5? input: COCCOC(=O)N1C(=O)[C@@]2(c3cc(C#Cc4ccc(OC)cc4)ccc31)[C@H](c1ccc(OCCO)cc1)N1[C@H](c3ccccc3)[C@H](c3ccccc3)OC(=O)[C@H]1[C@@H]2C(=O)N1CCc2cc(OC)c(OC)cc2C1
Result: 1

Task: One more compound: COc1ccc([Si](C)(C)[C@H]2[C@H](CCO)O[C@@]3(C(=O)N(Cc4cccc(N5C(=O)c6cccc7cccc5c67)c4)c4ccccc43)[C@@H]2C)cc1
Result: 1

* * *

Assay: small molecules captured by biotinylated probe aFSTL3 – biochemical, small-molecule microarray, fluorescence 635/667, stem cell growth factor project, primary screen (AID 1064);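 also: measures binding of the biotinylated anti-FSTL3 antibody to printed compounds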
Conditions: higher = more signal
Recorded composite z-score, one value per entry.
Please give the numeric answer without any surrounding text.

Please review the entries below; each comes with its answer.
CCCNC(=O)[C@@]1(C)c2ccccc2C(=O)N(Cc2ccc(OC(F)(F)F)cc2)[C@H]1c1ccc(CO)cc1 ... 0.29
O=C1c2ccccc2[C@](Cc2ccccc2I)(C(=O)O)[C@H](c2ccc(CO)cc2)N1Cc1ccccc1C(F)(F)F ... -0.897

Consider the additional molecule presented here.
Task: I'd like to know its composite z-score. The molecule in question is O=C1C2C=CC(C(O)c3ccc(Br)cc3)N(n3cnnc3)C2C(=O)N1Cc1ccccc1 (stereo not drawn)
Result: -0.0627

* * *

Experiment: viability profiling in MM1S myeloma cells – cell-based, resazurin fluorescence, basal, 24 h, PK04 Diversity Set, profiling panel (AID 1174);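 also: MM1S multiple myeloma cell line; test concentration not given here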
Conditions: higher = more signal, called active from +8 up or from −8 down
QUANTITY_KIND: z-score
Please give the numeric answer without any surrounding text.

Please review the entries below; each comes with its answer.
COc1ccc(C#Cc2ccc3c(c2)[C@]2(C(=O)N3)[C@H](c3ccc(OCCO)cc3)N3[C@H](c4ccccc4)[C@H](c4ccccc4)OC(=O)[C@H]3[C@@H]2C(=O)Nc2nc3ccccc3s2)cc1 ... 0.217
COCCCNC(=O)[C@@]1(Sc2ccc(C)cc2)CC(=O)N(Cc2ccccc2)[C@@H]1c1ccc(CO)cc1 ... 0.495
C=CCC(OC(C)=O)[C@@H]1[C@@H](N(Cc2ccc(-c3ccccc3)cc2)C(=O)c2ccc(C)cc2)c2cc(OCCCO)ccc2N1C(=O)Cc1ccc(OC)cc1 (some centres undefined) ... 1.02

Consider the additional compound presented here.
Task: I'd like to know its z-score. The compound in question is CCCCC(=C=CC[C@H](O)c1ccccc1OCCO)C[C@H](O)c1cc(Cl)cc(Cl)c1O
Result: -0.392

* * *

Recorded composite z-score, one value per entry.
Test: probe aCHRDL2 binding to arrayed compounds – biochemical, biotinylated probe, 635/667 nm fluorescence, primary screen (AID 1100)
Details: small-molecule microarray, higher = more signal

Please review the entries below; each comes with its answer.
NC(=O)NCC#Cc1ccc2c(c1)[C@]1(C(=O)N2)[C@H](c2ccc(O)cc2)N2[C@H](c3ccccc3)[C@H](c3ccccc3)OC(=O)[C@H]2[C@@H]1C(=O)N1CCN(c2ncccn2)CC1 ... 0.372
O=C1OCCC=C[C@H]2OC34C=CCN(c5ccc6ccccc6c5)C(=O)[C@H]3N(CCCCCCO)C(=O)[C@@H]4C12 (some centres undefined) ... 0.187
CC1CC/C=C\[C@H]2OC34C=CCN(CCN5CCOCC5)C(=O)[C@H]3N(CCCCCO)C(=O)[C@@H]4C2C(=O)O1 (some centres undefined) ... -0.824

Consider the additional compound presented here.
Task: I'd like to know its composite z-score. The compound in question is CO[C@H]1O[C@H](CO)[C@@H](OC(=O)Nc2ccc3c(c2)OCO3)[C@H](OC(=O)Nc2ccc3c(c2)OCO3)[C@H]1OC(=O)Nc1ccc2c(c1)OCO2
Result: 0.392

* * *

Assay: growth of efflux-deficient E. coli DRC39 – strain DRC39, OD650, 24 h, E. coli filamentation inducers, primary screen (AID 1178);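 also: growth measured as culture turbidity by optical density at 650 nm; test concentration not given here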
Conditions: E. coli DRC39 acrAB, higher = more signal, called active from +8 up or from −8 down
QUANTITY_KIND: z-score
Please give the numeric answer without any surrounding text.

Please review the entries below; each comes with its answer.
C=CCC(OC(C)=O)[C@@H]1[C@@H](N(Cc2ccc(-c3ccccc3)cc2)C(=O)c2ccc(C)cc2)c2cc(OCCCO)ccc2N1C(=O)Cc1ccc(OC)cc1 (stereo not given in full) ... -0.104
C=CCCN(CC#C[C@H]1Oc2ccccc2S(=O)(=O)N2CCC[C@@H]12)S(=O)(=O)c1ccc(C)cc1 ... 0.0069

Task: I'd like to know its z-score. The molecule in question is CC(C)N1C(=O)c2ccccc2[C@](C)(C(=O)NCCCN(C)C)[C@@H]1c1ccc(CO)cc1
Result: 0.0957

Task: One more molecule: COc1ccc([Si](C)(C)[C@@H]2[C@@H](CCO)O[C@]3(C(=O)N(Cc4cccc(N5CCCCC5=O)c4)c4ccccc43)[C@H]2C)cc1
Result: 0.318

Task: One more molecule: COCCOC(=O)N1C(=O)[C@@]2(c3cc(C#CCCO)ccc31)[C@H](c1ccc(O)cc1)N1[C@H](c3ccccc3)[C@H](c3ccccc3)OC(=O)[C@H]1[C@@H]2C(=O)N1CCCCCCC1
Result: 0.27

Task: One more molecule: CN1C(=O)C2C=CC(C(O)C(C)(C)C)N(Nc3ccccc3)C2C1=O (stereo not given)
Result: -0.568

Task: One more molecule: CO[C@H]1O[C@H](CO)[C@@H](OC(=O)Nc2ccccc2-c2ccccc2)[C@H](OC(=O)Nc2ccccc2-c2ccccc2)[C@H]1OC(=O)Nc1ccccc1-c1ccccc1
Result: 0.494

Task: One more molecule: COC(=O)[C@@]1(Cc2ccc(OC)cc2)[C@H]2c3cc(C(=O)N4CCCC4)n(CCN4CCOCC4)c3C[C@H]2CN1C(=O)c1ccccc1
Result: 0.0378

Task: One more molecule: OCCCc1cc[n+](Cc2cccc(OC(F)(F)F)c2)cc1
Result: 0.453

* * *

Recorded composite Z-score, one value per entry.
Experiment: probe aXIP binding to arrayed compounds – biochemical, NeuroSMM set, 635/667 nm fluorescence, primary screen (AID 1119);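 also: probe is the protein aXip251-270 applied at 1 µg/mL to compound-printed slides; binding of probe to printed compounds measured as 667 nm fluorescence plus signal to noise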
Conditions: small-molecule microarray, higher = more signal, called active from +8 up or from −8 down
Please give the numeric answer without any surrounding text.

NC(=O)NCC#Cc1ccc2c(c1)[C@]1(C(=O)N2)[C@H](c2ccccc2OCCO)N2[C@H](c3ccccc3)[C@H](c3ccccc3)OC(=O)[C@H]2[C@@H]1C(=O)N1CCCCCCC1 ... 4.09

Task: I'd like to know its composite Z-score. The compound in question is C=C(COC)/C(=C/C[C@H](OC(C)=O)c1ccccc1OCCO)c1cnc2ccccc2c1
Result: 0.115

Task: One more compound: C=CCOC(=O)[C@@H]1[C@H]2C(=O)O[C@H](c3ccccc3)[C@H](c3ccccc3)N2[C@H](c2ccc(OCCOC(=O)[C@H]3C[C@H]4C(=O)N[C@@H](CCCC[N+](C)(C)C)C(=O)N4[C@H]3c3cccc(OCCO)c3)cc2)[C@@]12C(=O)Nc1ccc(I)cc12
Result: 0.629

Task: One more compound: CCCCCCC#C[Si](O[C@H](c1ccccc1)c1cn([C@H](C)c2ccccc2)nn1)(C(C)C)C(C)C
Result: 0.282

Task: One more compound: COc1cc2c(cc1O)C(c1ccc(CN3CCCC3)cc1)N(Cc1sc3ccccc3c1Cl)CC2 (stereo not given)
Result: 0.0786

Task: One more compound: C=CCN1Cc2ccccc2C[C@@]2(COC(c3ccc(OCCCO)cc3)=N2)C1=O
Result: 0.0425
